Tested on: Leishmania infantum MHOM/MA(BE)/67/ITMAP263 intracellular amastigotes
Assay: microbe, parasite or virus in culture
Conditions: Macrophage, in Mus musculus, read-out: L. infantum MHOM/MA(BE)/67/ITMAP263 intracellular amastigotes IC50, intracellular amastigotes
pIC50: −log10 of the molar value.

# molecule, censoring sign, pIC50
measured = [
    ("COc1ccc(S(=O)(=O)N(Cc2ccccc2)Cc2ccccc2)cc1 [DNDI0003367309]", "=", 4.34),
    ("Cn1cccc(S(=O)(=O)N(Cc2ccc(F)cc2)Cc2ccc(F)cc2)c1=O [DNDI0003371168]", "=", 4.69),
    ("COc1ccc(C#N)cc1S(=O)(=O)N(Cc1ccccc1)Cc1ccccc1 [DNDI0003366138]", "=", 6.36),
    ("O=C(CN(Cc1ccccc1)S(=O)(=O)c1cc(F)ccc1F)c1ccc(F)cc1 [DNDI0003371157]", "<", 4.19),
    ("CN(C)CCN(Cc1ccccc1)S(=O)(=O)c1ccc(N)cc1 [DNDI0003368290]", "<", 4.19),
    ("C[S+]([O-])c1c(Cl)ccc2c1S(=O)(=O)N(Cc1ccccc1)CCO2 (centres unmarked) [DNDI0003578383]", "=", 4.32),
    ("CN(C)CCN(Cc1ccccc1)S(=O)(=O)c1ccccc1S(C)(=O)=O [DNDI0003367255]", "<", 4.19),
    ("CCOCCOc1ncccc1S(=O)(=O)NCc1ccc(F)cc1 [DNDI0003369119]", "=", 4.48),
    ("COc1ccc(OC)c(S(=O)(=O)N(CCn2nc(C)cc2C)Cc2ccccc2)c1 [DNDI0003367308]", "=", 5.21),
    ("CN(C)CCN(Cc1ccccc1)S(=O)(=O)c1ccc(NC(=O)CCCO)cc1 [DNDI0003368293]", "<", 4.19),
    ("O=S(=O)(c1cc(F)ccc1F)N(CCO)Cc1ccccc1 [DNDI0003368289]", "<", 4.19),
    ("O=c1[nH]cccc1S(=O)(=O)N(Cc1ccc(F)cc1)Cc1ccc(F)cc1 [DNDI0003371165]", "<", 4.19),
    ("COc1ccc(C#N)cc1S(=O)(=O)N(Cc1ccc(F)cc1)Cc1ccc(C#N)cc1 [DNDI0003371171]", "=", 4.48),
    ("CN(C)CCN(Cc1ccccc1)S(=O)(=O)c1ccc(N2C(=O)CCC2=O)cc1 [DNDI0003368291]", "<", 4.19),
    ("COc1ccc(OC)c(S(=O)(=O)N(Cc2ccc(F)cc2)Cc2ccccn2)c1 [DNDI0003368394]", "=", 6.01),
    ("COc1ccc(OC)c(S(=O)(=O)N(Cc2ccc(F)cc2)Cc2nc(C)no2)c1 [DNDI0003368295]", "=", 5.11),
    ("COc1ccc(OC)c(S(=O)(=O)N(Cc2ccc(F)cc2)Cc2oc(C)nc2C)c1 [DNDI0003370420]", "=", 5.63),
]

Reference source for all entries: paper PMC8126888
